B1: TPR t1 (parent)
chain: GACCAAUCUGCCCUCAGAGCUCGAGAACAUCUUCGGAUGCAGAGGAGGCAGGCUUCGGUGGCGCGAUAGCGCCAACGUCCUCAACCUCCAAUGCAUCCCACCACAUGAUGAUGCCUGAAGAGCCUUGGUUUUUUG

Variants of: B1
Test: polymerase ribozyme fitness, log enrichment relative to wild type (log ratio); higher = more active; in vitro selection for triplet polymerase activity
Value type: polymerase ribozyme fitness (log ratio)
// response body must contain only the number

Observe how each entry below is paired with its result.
- Var: "U9C C62U C102U"
  polymerase ribozyme fitness (log ratio): -1.87
- Var: "G19U C86U"
  polymerase ribozyme fitness (log ratio): -2.9
- Var: "U14C A46U C62U U125A"
  polymerase ribozyme fitness (log ratio): -3.37
- Var: "G36U C97A"
  polymerase ribozyme fitness (log ratio): -0.428
- Var: "C15G C62U"
  polymerase ribozyme fitness (log ratio): -1.91
- Var: "C49A G63U G65C G120C"
  polymerase ribozyme fitness (log ratio): -6.43
- Var: "G35A C64A C114G U125G"
  polymerase ribozyme fitness (log ratio): -7.35
- Var: "C8A A16G A43C"
  polymerase ribozyme fitness (log ratio): -1.35

In: I have this variant here, G10A C102A , and I need its recorded polymerase ribozyme fitness (log ratio).
Out: -1.65

In: Again, but for U7A G71C U81G
Out: -5.8

In: Again, but for C56U U129A
Out: -1.15
